target: UniProt:Q9NYK1; assay: TLR7 inhibition reporter assay (HEK-Blue cells, SEAP reporter, gardiquimod stimulation); conditions: HEK-Blue cells overexpressing human TLR7, gardiquimod 7.5 μM
Sequence (Q9NYK1 27-1049): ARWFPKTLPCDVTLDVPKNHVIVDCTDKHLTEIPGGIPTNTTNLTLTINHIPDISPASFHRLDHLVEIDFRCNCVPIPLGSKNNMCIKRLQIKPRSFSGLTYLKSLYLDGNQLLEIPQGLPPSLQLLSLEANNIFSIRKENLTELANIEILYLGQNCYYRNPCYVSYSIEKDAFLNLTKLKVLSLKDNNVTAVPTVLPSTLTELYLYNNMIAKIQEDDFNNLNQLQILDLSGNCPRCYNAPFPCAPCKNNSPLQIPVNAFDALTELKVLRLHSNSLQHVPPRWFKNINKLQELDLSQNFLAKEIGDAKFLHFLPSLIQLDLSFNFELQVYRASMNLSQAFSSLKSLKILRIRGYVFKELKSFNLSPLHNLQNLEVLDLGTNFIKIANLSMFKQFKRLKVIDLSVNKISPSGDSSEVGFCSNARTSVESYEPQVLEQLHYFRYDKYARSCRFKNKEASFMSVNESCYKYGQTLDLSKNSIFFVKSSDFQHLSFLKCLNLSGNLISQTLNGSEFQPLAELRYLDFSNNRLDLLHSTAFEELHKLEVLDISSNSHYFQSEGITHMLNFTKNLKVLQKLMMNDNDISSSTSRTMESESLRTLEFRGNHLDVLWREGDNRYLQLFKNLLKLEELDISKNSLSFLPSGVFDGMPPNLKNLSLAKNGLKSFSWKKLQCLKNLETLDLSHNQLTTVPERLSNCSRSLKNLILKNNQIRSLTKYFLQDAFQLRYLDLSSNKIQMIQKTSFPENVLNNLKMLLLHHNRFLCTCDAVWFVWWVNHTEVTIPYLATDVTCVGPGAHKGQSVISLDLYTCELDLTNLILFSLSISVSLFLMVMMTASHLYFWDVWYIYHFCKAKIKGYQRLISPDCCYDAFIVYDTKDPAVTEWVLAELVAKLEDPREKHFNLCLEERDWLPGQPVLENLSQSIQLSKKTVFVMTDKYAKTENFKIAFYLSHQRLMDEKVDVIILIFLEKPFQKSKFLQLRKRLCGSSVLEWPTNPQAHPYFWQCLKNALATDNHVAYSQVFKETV
Structures can show the parent of a compound that is named as a salt.
So I've got a bunch of molecules here, and I need their pIC50 values.
Quick note: pIC50 values are minus log10 of concentrations in mol/L.

q: Consider the molecule shown here: "CCc1c(-c2ccc(OC)c(OC)c2)[nH]c2cc(OC)c(C3CCN(C4CCN(C(C)C)CC4)CC3)cc12" What is its recorded pIC50?
a: 6.77

q: Dear colleague, I am looking for the recorded pIC50 of the following molecule: "COc1ccc(-c2[nH]c3ccc(C4CCN(Cc5cccc(C#N)c5)CC4)cc3c2C(C)C)cc1OC"
a: 6.44

q: Look at this molecule and give its reported pIC50. COc1ccc(-c2[nH]c3ccc(C4CCN(C5CCN(C6CCCC(C(F)(F)F)C6)CC5)CC4)cc3c2C)cc1OC (centres unmarked) [Example 79]
a: 5.63

q: Data request, read-out pIC50, for CCN(CC)C(=O)C1CCCN(CC(=O)N2CCC(c3ccc4[nH]c(-c5ccc(OC)c(OC)c5)c(C(C)C)c4c3)CC2)C1 (centres unmarked) [Example 248]
a: 7.48

q: Could you share which pIC50 value was measured for "COc1ccc(-c2[nH]c3ccc(C4CCN(C(=O)CNc5cc(C(C)(C)C)n[nH]5)CC4)cc3c2C(C)C)cc1OC" ?
a: 6.67

q: Could you share which pIC50 value was measured for "CCc1c(-c2ccc(OC)c(OC)c2)[nH]c2ccc(C3CCN(C4CCN(Cc5ccccc5)CC4)CC3)cc12" ?
a: 6.53

q: Need pIC50, item "COc1ccc(-c2[nH]c3ccc(C4CCN(C5CCN(C6COC6)CC5)CC4)cc3c2C)cc1OC"
a: 5.58

q: Please look up its pIC50: "COc1ccc(-c2[nH]c3ccc(C4CCN(C(=O)CN5CCC[C@H](C(=O)NCC#N)C5)CC4)cc3c2C(C)C)cc1OC"
a: 7.32

q: What does the record list as pIC50 for "COc1ccc(-c2[nH]c3ccc(C4CCN(C5CCN(C6CCCC6)CC5)CC4)cc3c2C(C)C)cc1OC" ?
a: 6.81

q: Consider the molecule shown here: "COc1ccc(-c2[nH]c3ccc(C4CCN(C5CCN(C(C)C)CC5)CC4)cc3c2C(C)C)cc1OC" What is its recorded pIC50?
a: 6.92

q: So what's the measured pIC50 for this one? COc1ccc(-c2[nH]c3ccc(C4CCNCC4)cc3c2C(C)C)cc1OC [Example 194, hydrochloride]
a: 7.14

q: Which value of pIC50 has been reported for "COc1ccc(-c2[nH]c3ccc(C4CCN(C(=O)CN5CCC(N(C)C)CC5)CC4)cc3c2C(C)C)cc1OC" in the records?
a: 8.22

q: Give the measured pIC50 of "COc1ccc(-c2[nH]c3ccc(C4CCN(C5CCN(CC(C)C)CC5)CC4)cc3c2Cl)cc1OC" .
a: 5.56

q: Need pIC50 of "COc1ccc(-c2[nH]c3ccc(C4CCN(C(=O)Cc5c[nH]c6ccccc56)CC4)cc3c2CC(F)(F)F)cc1OC" , thanks.
a: 5.73

q: Give the measured pIC50 of CCc1c(-c2ccc(OC)c(OC)c2)[nH]c2ccc(C3CCN(C(=O)CN4CCCC(C(=O)N(CC)CC)C4)CC3)cc12 (centres unmarked) [Example 168] .
a: 6.85

q: Which pIC50 reading was recorded for the molecule COc1ccc(-c2[nH]c3ccc(C4CCN(C5CCN(CC(C)C)C5)CC4)cc3c2C)cc1OC (centres unmarked) ?
a: 6.04

q: Which pIC50 is listed for "COc1ccc(-c2[nH]c3ccc(C4CCN(C(=O)CN(C)C)CC4)cc3c2C)cc1OC" ?
a: 6.26

q: # get_value(readout='pIC50', item= CCN1CCCC(N2CCC(c3ccc4[nH]c(-c5ccc(OC)c(OC)c5)c(C)c4c3)CC2)CC1 (centres unmarked) )
a: 6.03

q: Entry under review: "CCCCN1CCC(N2CCC(c3ccc4[nH]c(-c5ccc(OC)c(OC)c5)c(C)c4c3)CC2)CC1" . Reported pIC50?
a: 6.84

q: Look up pIC50: "COc1ccc(-c2[nH]c3ccc(C4CCN(C(=O)CN5CCC[C@@H](C(=O)N(C)C(C)C)C5)CC4)cc3c2C(C)C)cc1OC"
a: 7.19

q: Find the recorded pIC50 belonging to "COc1ccc(-c2[nH]c3ccc(C4CCN(C(=O)CN5CCC(N6CCCCC6)CC5)CC4)cc3c2C(C)C)cc1OC" and report it.
a: 7.85

q: Value lookup for pIC50; key = "COc1ccc(-c2[nH]c3ccc(C4CCN(C(=O)C5CCN(C(C)=O)CC5)CC4)cc3c2CC(F)(F)F)cc1OC"
a: 6.59

q: Param item = "COc1ccc(-c2[nH]c3ccc(C4CCN(Cc5ccc(OCCCN(C)C)cc5)CC4)cc3c2C)cc1OC" ; retrieve measured pIC50.
a: 6.18

q: Look up pIC50 for this molecule: "COc1ccc(-c2[nH]c3ccc(C4CCN(Cc5cccc(C(F)(F)F)c5)CC4)cc3c2C(C)C)cc1OC"
a: 5.57

q: Param item = "COc1ccc(-c2[nH]c3ccc(C4CCN(C5CC(C)(C)NC(C)(C)C5)CC4)cc3c2C)cc1OC" ; retrieve measured pIC50.
a: 6.25

q: Given COc1ccc(-c2[nH]c3ccc(C4CCN(CC(=O)NCCC5CCCN5C)CC4)cc3c2CC(F)(F)F)cc1OC (centres unmarked) , state its recorded pIC50.
a: 7.80

q: I would be grateful if you could share the reported pIC50 for "COc1ccc(-c2[nH]c3ccc(C4CCN(Cc5cncn5C)CC4)cc3c2C(C)C)cc1OC" .
a: 7.74

q: Query: pIC50; subject: "COc1ccc(-c2[nH]c3ccc(C4CCN(Cc5ccc(OC(F)(F)F)cc5)CC4)cc3c2C(C)C)cc1OC"
a: 5.62
